assay: in vitro; settings: human, CC50 (nM)
Quick rule for you: CC50 under 2000 nM gets true (1), anything else gets false (0).

compound: C=CCOC(=O)O[C@@H]1COC(Oc2c3c(c(-c4ccc5c(c4)OCO5)c4cc(OC)c(OC)cc24)C(=O)OC3)[C@H](OC(=O)OCC=C)[C@H]1OC(=O)N(C)C (stereo partly drawn) [Compound 30a]
category.label: true (1)
--
compound: COc1cc2c(Nc3ccc(C(F)(F)F)cc3)c3c(c(-c4ccc5c(c4)OCO5)c2cc1OC)C(=O)OC3 [Compound 19e]
category.label: false (0)
--
compound: COc1cc2c(OC3OC[C@@H](OC(C)=O)[C@H](OC(C)=O)[C@H]3O)c3c(c(-c4ccc5c(c4)OCO5)c2cc1OC)C(=O)OC3 (stereo partly drawn) [Compound 27ad, 3″, 4″-Diacetyl-7-O-β-D-xylosyldiphyllin]
category.label: true (1)

## Task For this compound, is CC50 lower than 2000 nM? COc1cc2c(OC3O[C@H](CO)[C@H]4OC(C)(C)O[C@@H]4[C@H]3O)c3c(c(-c4ccc5c(c4)OCO5)c2cc1OC)C(=O)OC3 (stereo partly drawn) [Compound 32a]
## Result true (1)

## Task Does this compound meet the criterion CC50 < 2000 nM? COc1cc2c(OC(C)=O)c3c(c(-c4ccc5c(c4)OCO5)c2cc1OC)C(=O)OC3 [Compound 16]
## Result false (0)

## Task Please check: CC50 for COc1cc2c(-c3ccc4c(c3)OCO4)c3c(c(N4CCOCC4)c2cc1OC)COC3=O [Compound 19m] , strictly under 2000 nM or not?
## Result true (1)

###

test system: H5N1 virus; test: microbe, parasite or virus in culture; assay type: cell-based, H5N1 influenza virus; conditions: Influenza A virus, H5N1, A549, 50 ng/mL; read-out: % Inhibition against H5N1 virus
assay.metric: inhibition at 0.05 µg/mL
The reply should consist of the numeric value with the unit placed after it.

Answered examples (4):
compound: COc1cc2c(OC3OC[C@@H](O)[C@H](OCc4ccccc4)[C@H]3O)c3c(c(-c4ccc5c(c4)OCO5)c2cc1OC)C(=O)OC3 (stereo partly drawn) [Compound 31l, 3″-O-benzyl-7-O-β-D-xylosyldiphyllin]
test.system: H5N1 virus
inhibition at 0.05 µg/mL: 96%

compound: COc1cc2c(OC3O[C@H](C)[C@@H](O)[C@H](OC(=O)c4ccc(Cl)cc4)[C@H]3O)c3c(c(-c4ccc5c(c4)OCO5)c2cc1OC)C(=O)OC3 (some centres unmarked) [Compound 31h]
test.system: H5N1 virus
inhibition at 0.05 µg/mL: 94.6%

compound: COc1cc2c(OC3OC[C@@H](O)[C@H](OC(=O)N(C)C)[C@H]3O)c3c(c(-c4ccc5c(c4)OCO5)c2cc1OC)C(=O)OC3 (some centres unmarked) [Compound 31a]
test.system: H5N1 virus
inhibition at 0.05 µg/mL: 94.4%

compound: C=CCOC(=O)O[C@@H]1COC(Oc2c3c(c(-c4ccc5c(c4)OCO5)c4cc(OC)c(OC)cc24)C(=O)OC3)[C@H](OC(=O)OCC=C)[C@H]1OC(=O)N(C)C (some centres unmarked) [Compound 30a]
test.system: H5N1 virus
inhibition at 0.05 µg/mL: 95.7%

Now, please, on to the next compound.
## Task What value of measured inhibition at 0.05 µg/mL is listed for COc1cc2c(OC3O[C@H](C)[C@@H](O)[C@H](OC(=O)C4CC4)[C@H]3O)c3c(c(-c4ccc5c(c4)OCO5)c2cc1OC)C(=O)OC3 (some centres unmarked) [Compound 31g] ?
## Result 97.9%

###

experiment: in vitro; details: human, CC50 (nM)
// returns not met unless CC50 is strictly below 1000 nM, in which case met

Consider the worked cases shown below.
compound: C#CCOc1c2c(c(-c3ccc4c(c3)OCO4)c3cc(OC)c(OC)cc13)C(=O)OC2 [Compound 17c]
category.label: met
--
compound: COc1cc2c(-c3ccco3)c3c(c(-c4ccc5c(c4)OCO5)c2cc1OC)C(=O)OC3 [Compound 19k]
category.label: not met
--
compound: COc1cc2c(OC3OC[C@@H](O)[C@H](O)[C@H]3O)c3c(c(-c4ccc5c(c4)OCO5)c2cc1OC)C(=O)OC3 (stereo partly drawn) [Compound 26a, 7β-D-xylosyloxydiphyllin]
category.label: not met
--
compound: COc1cc2c(OC(=O)C3CCCC3)c3c(c(-c4ccc5c(c4)OCO5)c2cc1OC)C(=O)OC3 [Compound 17f]
category.label: not met
--
compound: COc1cc2c(OS(=O)(=O)C(F)(F)F)c3c(c(-c4ccc5c(c4)OCO5)c2cc1OC)C(=O)OC3
category.label: not met

Next up:
## Task Answer whether the compound COc1cc2c(OC3O[C@H](CO)[C@@H](O)[C@H](O)[C@H]3O)c3c(c(-c4ccc5c(c4)OCO5)c2cc1OC)C(=O)OC3 (stereo partly drawn) [Compound 26f, 7-O-β-D-glucopyranosyldiphyllin] has CC50 strictly less than 1000 nM
## Result not met

###

system: H5N1 virus; assay: microbe, parasite or virus in culture; type: cell-based, H5N1 influenza virus; details: 50 ng/mL
assay.metric: % Inhibition against H5N1 virus (%)
Your answer should be a plain number; it is taken to be in %.

molecule: COc1cc2c(OC3OC[C@@H](O)[C@H](OCc4ccccc4)[C@H]3O)c3c(c(-c4ccc5c(c4)OCO5)c2cc1OC)C(=O)OC3 (stereo partly drawn) [Compound 31l, 3″-O-benzyl-7-O-β-D-xylosyldiphyllin]
assay.metric: % Inhibition against H5N1 virus
observed.result: 95.6

molecule: COc1cc2c(OC3O[C@H](C)[C@@H](O)[C@H](OC(=O)CC#N)[C@H]3O)c3c(c(-c4ccc5c(c4)OCO5)c2cc1OC)C(=O)OC3 (stereo partly drawn) [Compound 31j, 3″-O-cyanoacetyl-7-O-β-D-patentiflorin A]
assay.metric: % Inhibition against H5N1 virus
observed.result: 98.2

molecule: COc1cc2c(OC3O[C@H](C)[C@@H](O)[C@H](OC(=O)c4ccc(N(C)C)cc4)[C@H]3O)c3c(c(-c4ccc5c(c4)OCO5)c2cc1OC)C(=O)OC3 (stereo partly shown) [Compound 31e]
assay.metric: % Inhibition against H5N1 virus
observed.result: 96.5

# evaluate next
## Task Give the measured % Inhibition against H5N1 virus of COc1cc2c(OC3O[C@H](C)[C@@H](O)[C@H](OC(=O)C4CC4)[C@H]3O)c3c(c(-c4ccc5c(c4)OCO5)c2cc1OC)C(=O)OC3 (stereo partly shown) [Compound 31g] .
## Result 89.0

###

tested on: EBOV (Ebola virus); assay: microbe, parasite or virus in culture; type: cell-based; settings: Zaire ebolavirus, A549; 500 ng/mL; read-out: % Inhibition against EBOV
assay.metric: inhibition at 0.5 µg/mL (%)
Response body: numeric value in %, unit text excluded.

These solved cases illustrate the format of a correct answer.
compound: CN(C)CCOc1ccc(/C(=C(/CCCl)c2ccccc2)c2ccccc2)cc1 [Toremifene, toremifene, reference compound]
assay.metric: inhibition at 0.5 µg/mL
unit.tag: %
observed.result: 93.6
//
compound: COc1cc2c(OC3O[C@H](CO)[C@H](O)[C@@H]4OC(C)(C)O[C@@H]34)c3c(c(-c4ccc5c(c4)OCO5)c2cc1OC)C(=O)OC3 (stereo partly shown) [Compound 32d]
assay.metric: inhibition at 0.5 µg/mL
unit.tag: %
observed.result: 82.7
//
compound: COc1cc2c(OC3O[C@@H]4COC(C)(C)O[C@@H]4[C@H](O)[C@H]3O)c3c(c(-c4ccc5c(c4)OCO5)c2cc1OC)C(=O)OC3 (stereo partly shown) [Compound 32c]
assay.metric: inhibition at 0.5 µg/mL
unit.tag: %
observed.result: 88.2

## Task For the compound shown here, COc1cc2c(OC3O[C@H](CO)[C@@H](O)[C@H](O)[C@H]3O)c3c(c(-c4ccc5c(c4)OCO5)c2cc1OC)C(=O)OC3 (stereo partly drawn) [Compound 26f, 7-O-β-D-glucopyranosyldiphyllin] , give the reported inhibition at 0.5 µg/mL.
## Result 89.1

###

system: SF162; assay: HIV-1 clinical strain PBMC assay (p24 ELISA), SF162; type: cell-based; conditions: Human immunodeficiency virus 1, PBMC, read-out: IC50 against SF162
The reader will find reported pIC50 values listed item by item below.
Entry type: numeric. Quantity: pIC50, the -log10 of concentration in molar units.

The examples below pair each entry with its known result.
molecule: CCOC(=O)COc1c2c(c(-c3ccc4c(c3)OCO4)c3cc(OC)c(OC)cc13)C(=O)OC2 [Compound 12b]
test.system: SF162
pIC50: 6.47
--
molecule: COc1cc2c(B3OC(C)(C)C(C)(C)O3)c3c(c(-c4ccc5c(c4)OCO5)c2cc1OC)C(=O)OC3 [Compound 19a]
test.system: SF162
pIC50: 6.81

## Task Endpoint output: pIC50 of C#Cc1c2c(c(-c3ccc4c(c3)OCO4)c3cc(OC)c(OC)cc13)C(=O)OC2 . Value?
## Result 7.62

## Task What pIC50 value was documented for this molecule, COc1cc2c(OCC#N)c3c(c(-c4ccc5c(c4)OCO5)c2cc1OC)C(=O)OC3 [Compound 17a] ?
## Result 6.91

Measured values drawn from patent US11638713B2 for this set.
